Values from PubChem BioAssay (NCI)

Reported TGI values for the following compounds.
# Test system: UACC-62 melanoma
# experimental_details: NCI tumour cell line growth inhibition, 48 h
observation_type: TGI (µM)

compound | observation_type | relation_symbol | recorded_result
COc1cc(/C=C/c2cc(/C=C/c3ccc(O)c(OC)c3)n(C(=O)Nc3ccc(C)cc3)n2)ccc1O | TGI | = | 2.61
COC(=O)C1CC2CC1C1C2SC(F)(F)C1(F)F (stereo not given) | TGI | > | 100
O=[N+]([O-])c1ccc(/C=C(/c2ccc([N+](=O)[O-])o2)S(=O)(=O)c2ccccc2)cc1 | TGI | = | 75.7
CC1=C(C(=O)NNC(=O)C[N+](C)(C)C)CC(C(=O)NNC(=O)C[N+](C)(C)C)=C(C)N1 | TGI | > | 100
O=C1C(Cl)=CC2(C=C1Cl)CCN=c1c(O)c3c(c(O)c12)=NC=N3 | TGI | = | 34.7

====

# Tested on: KM12 colon
# experimental_details: NCI tumour cell line growth inhibition, 48 h; in the data active means GI50 below about 0.43 µM; inactive means the rest
Outcome codes: active, inactive

compound | answer_label
CN(C)[C@@H]1C(=O)C(C(=O)NCc2nc3[nH]cnc(=S)c3[nH]2)=C(O)[C@@]2(O)C(=O)C3=C(O)c4c(O)cccc4[C@@](C)(O)[C@H]3C[C@@H]12 | inactive
Cc1cccc(Oc2ccc(Nc3ncnc4ccc(NC(=O)CN(C)C)cc34)cc2Cl)c1 | inactive
C#CCCCCCC(=O)N[C@H]1C=C[C@@H]2/C=C(C)/C=C/[C@@H](C)[C@H]([C@H](C)[C@H](O)[C@@H](C)NC(C)=O)OC(=O)/C=C/C=C(C)\C=C\[C@]2(C)C1 | active
O=C1NC(=O)C2C3C=CC(C12)C1C2C(=O)NC(=O)C2C31 (stereo not drawn) | inactive
CN(C)CCCC1(c2ccc(F)cc2)OCc2cc(-c3csc4ccccc34)ccc21 (stereo not drawn) | inactive
CCCCCCCCCCCCOC1C(C(COC2OC(C(O)CO)C3OC(C)(C)OC23)OC(=O)Nc2ccccc2)OC2OC(C)(C)OC21 (stereo not drawn) | inactive
CC(C)c1ccc2c(c1)CCC1C2CCCC1(C)NCc1ccccc1 (stereo not drawn) | inactive
c1cc(OCCCCCOc2cccc(-c3nc4ccccc4[nH]3)c2)cc(-c2nc3ccccc3[nH]2)c1 | inactive

====

Consider the following compounds and their measured TGI readings.
# System: SNB-78 CNS
# experimental_details: NCI tumour cell line growth inhibition, 48 h
observation_type: TGI (µM)

compound | relation_symbol | recorded_result
CCCCCNC(=O)CCCCCCCCCCCNC(=O)CCCCCCCCCCN1C=CC(=CC=C2C=CC(=O)C=C2)C=C1 | = | 96.9
O=c1c2cc(Br)ccc2nc(CNc2ccccc2)n1-c1ccccc1 | = | 57.9
C/C(=C\c1ccccc1)C(O)C(=O)c1nc2ccc(Cl)cc2[nH]c1=O (stereo unspecified) | > | 100
C=CCN1C(=O)NC(=O)/C(=C/c2c3ccccc3cc3ccccc23)C1=O | > | 100
C=C(C)c1nc(Oc2ccccc2)nc(Oc2ccccc2)n1 | = | 26.8
CC1=N/C(=C\c2ccc(C)cc2)C(=O)O1 | > | 100

====

# Tested on: SF-539 CNS
# experimental_details: NCI tumour cell line growth inhibition, 48 h

compound | TGI
COc1cc(S(=O)(=O)Nc2nc(-c3ccc(N=Cc4ccccc4O)cc3)cs2)ccc1Cl | > 100 µM
Nc1nccc(NCC2(CO)CC(CCc3ccccc3)C2)n1 (stereo unspecified) | 32.1 µM
CCOC(OCC)(OCC)C(Br)CC (stereo unspecified) | > 100 µM
CC(C)=CCC[C@@H](C)C1=C(N)C(O)=C(C)C(=O)C1=O | > 75 µM
Cc1nc2ccc(S(=O)(=O)O)cc2c(=O)n1-c1ccc(C(=O)NN2C(=O)C(Cl)C2c2cccs2)cc1 (stereo unspecified) | > 100 µM
COc1cc2c(cc1C)NC(=O)/C2=C\c1ccc(Oc2ccccc2)cc1 | 32.7 µM
CC1(c2ccc(Cl)cc2)C=C(c2ccc(Cl)cc2)C(C#N)=C(C(C#N)C#N)N1 (stereo unspecified) | 43.9 µM
NCCc1ccc(S(=O)(=O)O)cc1[N+](=O)[O-] | > 100 µM
CC1(C)CC(=O)C(C(=O)Nc2cccs2)=C(O)C1 | > 100 µM
CN1CCN(C(=O)/C=C/c2ccc([N+](=O)[O-])o2)CC1 | 45 µM
O=c1[nH]c2ccccc2c2oc3ccccc3c12 | > 100 µM
